Cited source: ChEMBL document CHEMBL2062435

System: Pseudomonas aeruginosa
assayOverview: Antimicrobial activity against Pseudomonas aeruginosa 10-12 after 18-24 hrs by two-fold serial dilution method
Type: functional
assayReadout: MIC (µg/mL)
Express the result in µg/mL but write the number alone.

Worked examples, 5 molecules total:
# molecule, unitOfMeasurement, measurement
rows = [
    ("COc1cccc(CO/N=C2\\CN(c3nc4c(cc3F)c(=O)c(C(=O)O)cn4C3CC3)CC2CN)c1OC.CS(=O)(=O)O (racemic)", "µg/mL", 8),
    ("COc1ccc(CO/N=C2\\CN(c3nc4c(cc3F)c(=O)c(C(=O)O)cn4C3CC3)CC2CN)cc1.CS(=O)(=O)O (racemic)", "µg/mL", 2),
    ("COc1ccc(CO/N=C2\\CN(c3nc4c(cc3F)c(=O)c(C(=O)O)cn4C3CC3)CC2CN)cc1OC.CS(=O)(=O)O (racemic)", "µg/mL", 0.03),
    ("CS(=O)(=O)O.NCC1CN(c2nc3c(cc2F)c(=O)c(C(=O)O)cn3C2CC2)C/C1=N\\OCc1ccc2c(c1)OCO2 (racemic)", "µg/mL", 0.06),
    ("COc1ccc(CO/N=C2\\CN(c3nc4c(cc3F)c(=O)c(C(=O)O)cn4C3CC3)CC2CN)c(OC)c1OC.CS(=O)(=O)O (racemic)", "µg/mL", 8),
]

Recall and state the measured MIC for CS(=O)(=O)O.NCC1CN(c2nc3c(cc2F)c(=O)c(C(=O)O)cn3C2CC2)C/C1=N\OCc1cc2c(cc1Cl)OCO2 (racemic) .
8

Recall and state the measured MIC for COc1ccc(CO/N=C2\CN(c3nc4c(cc3F)c(=O)c(C(=O)O)cn4C3CC3)CC2CN)c([N+](=O)[O-])c1OC.CS(=O)(=O)O (racemic) .
0.06

Recall and state the measured MIC for COc1cc(CO/N=C2\CN(c3nc4c(cc3F)c(=O)c(C(=O)O)cn4C3CC3)CC2CN)ccc1OC(F)F.CS(=O)(=O)O (racemic) .
8

Recall and state the measured MIC for CS(=O)(=O)O.NCC1CN(c2nc3c(cc2F)c(=O)c(C(=O)O)cn3C2CC2)C/C1=N\OCc1cc2c(cc1[N+](=O)[O-])OCO2 (racemic) .
8

Recall and state the measured MIC for COc1cccc(OC)c1CO/N=C1\CN(c2nc3c(cc2F)c(=O)c(C(=O)O)cn3C2CC2)CC1CN.CS(=O)(=O)O (racemic) .
4

Recall and state the measured MIC for C[C@H]1COc2c(N3CCN(C)CC3)c(F)cc3c(=O)c(C(=O)O)cn1c23.C[C@H]1COc2c(N3CCN(C)CC3)c(F)cc3c(=O)c(C(=O)O)cn1c23.O [LEVOFLOXACIN] .
0.25

Recall and state the measured MIC for CO/N=C1\CN(c2nc3c(cc2F)c(=O)c(C(=O)O)cn3C2CC2)CC1CN (stereo not drawn) [GEMIFLOXACIN] .
0.03

---

Tested on: Staphylococcus aureus
assayOverview: Antimicrobial activity against Staphylococcus aureus ATCC […] after 18-24 hrs by two-fold serial dilution method
Type: functional
Catalogue of MIC values
Express the result in µg/mL but write the number alone.

Worked examples, 2 compounds total:
# compound, MIC / µg/mL
records = [
    ("CS(=O)(=O)O.NCC1CN(c2nc3c(cc2F)c(=O)c(C(=O)O)cn3C2CC2)C/C1=N\\OCc1cc2c(cc1[N+](=O)[O-])OCO2 (racemic)", 0.008),
    ("COc1ccc(CO/N=C2\\CN(c3nc4c(cc3F)c(=O)c(C(=O)O)cn4C3CC3)CC2CN)c(OC)c1OC.CS(=O)(=O)O (racemic)", 0.015),
]

Now examine the next entry.
Recall and state the measured MIC for COc1ccc(CO/N=C2\CN(c3nc4c(cc3F)c(=O)c(C(=O)O)cn4C3CC3)CC2CN)cc1.CS(=O)(=O)O (racemic) .
0.015
